# credit: patent US20240166635A1

# pIC50 per entry
test_system: CDK7/CyclinH/MAT1 (Homo sapiens (Human), UniProt P50613)
Sequence (P50613 whole entry): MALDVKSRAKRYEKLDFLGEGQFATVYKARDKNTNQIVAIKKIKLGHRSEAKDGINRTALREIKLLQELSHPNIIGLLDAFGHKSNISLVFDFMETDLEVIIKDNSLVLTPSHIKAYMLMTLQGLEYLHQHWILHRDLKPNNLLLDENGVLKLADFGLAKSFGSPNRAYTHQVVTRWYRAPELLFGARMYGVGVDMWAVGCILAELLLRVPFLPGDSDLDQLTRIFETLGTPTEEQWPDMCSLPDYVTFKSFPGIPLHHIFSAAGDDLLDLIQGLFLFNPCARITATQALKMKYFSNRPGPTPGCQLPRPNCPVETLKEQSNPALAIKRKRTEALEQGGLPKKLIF
Sequence (P51946 whole entry partner): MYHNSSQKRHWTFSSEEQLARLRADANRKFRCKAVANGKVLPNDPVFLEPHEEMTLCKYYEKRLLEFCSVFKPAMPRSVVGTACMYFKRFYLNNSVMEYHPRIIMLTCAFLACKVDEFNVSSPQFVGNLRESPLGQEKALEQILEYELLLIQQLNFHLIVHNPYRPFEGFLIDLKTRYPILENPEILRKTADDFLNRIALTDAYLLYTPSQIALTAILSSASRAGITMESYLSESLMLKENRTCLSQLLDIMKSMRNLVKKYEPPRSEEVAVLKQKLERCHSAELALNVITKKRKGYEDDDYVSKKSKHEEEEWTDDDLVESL
Sequence (P51948 whole entry partner): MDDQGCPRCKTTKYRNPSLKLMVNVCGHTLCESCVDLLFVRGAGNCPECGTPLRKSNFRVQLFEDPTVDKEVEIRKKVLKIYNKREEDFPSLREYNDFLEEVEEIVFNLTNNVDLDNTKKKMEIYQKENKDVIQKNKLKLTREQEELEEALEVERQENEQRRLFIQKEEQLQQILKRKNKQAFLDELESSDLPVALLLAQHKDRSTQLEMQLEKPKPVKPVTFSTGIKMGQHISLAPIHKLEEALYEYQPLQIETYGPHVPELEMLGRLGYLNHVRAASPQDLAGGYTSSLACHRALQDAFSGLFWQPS
protocol_description: CDK7/CyclinH/MAT1 kinase inhibitory activity (Caliper mobility shift)
pIC50: −log10 of the molar value.

| compound | pIC50 |
| --- | --- |
| CNS(=O)(=O)N1CCC(Nc2ncc(C#N)c(OCC3(C)CCCC3)n2)CC1 | ≤ 6.00 |
| CC1(O)CCCC1Oc1nc(NC2CCN(S(=O)(=O)CC3CCOC3)CC2)ncc1C#N (single isomer, unassigned) [Example 40a] | 6.00 to 7.00 |
| CNS(=O)(=O)c1ccc(Nc2ncc(C(F)(F)F)c(OC3CCCC3O)n2)cc1 (single isomer, unassigned) [Example 105a] | 6.00 to 7.00 |

Q. Give pIC50 for the following compound: N#Cc1cnc(Nc2ccc(S(N)(=O)=O)cc2)nc1OCC1CCC1
A. ≤ 6.00

Q. Give pIC50 for the following compound: CC1(O)COCCC1Oc1nc(NC2CCN(S(C)(=O)=O)CC2)ncc1C#N (single isomer, unassigned) [Example 45a]
A. 7.00 to 8.00

Q. Give pIC50 for the following compound: CC1(COc2nc(NC3CCN(S(=O)(=O)CCO)CC3)ncc2C#N)CCCC1
A. 6.00 to 7.00

Q. Give pIC50 for the following compound: [2H]C([2H])([2H])NS(=O)(=O)c1ccc(Nc2ncc(C(F)(F)F)c(OC3CCCC3O)n2)cc1 (single isomer, unassigned) [Example 109a]
A. 6.00 to 7.00

Q. Give pIC50 for the following compound: CC1(COc2nc(Nc3ccc(S(N)(=O)=O)cc3)ncc2C#N)CCCCC1
A. ≤ 6.00

Q. Give pIC50 for the following compound: [2H]C([2H])([2H])NS(=O)(=O)c1ccc(Nc2ncc(C(F)(F)F)c(OC3CCOCCC3O)n2)cc1 (single isomer, unassigned) [Example 102c]
A. ≤ 6.00

Q. Give pIC50 for the following compound: Cn1cnc(S(=O)(=O)N2CCC(Nc3ncc(C#N)c(OC4CCCC4(C)O)n3)CC2)n1 (single isomer, unassigned) [Example 51a]
A. 6.00 to 7.00

Q. Give pIC50 for the following compound: [2H]C([2H])([2H])NS(=O)(=O)c1ccc(Nc2ncc(C(F)(F)F)c(OC3CCCC3)n2)cc1
A. ≤ 6.00

Q. Give pIC50 for the following compound: [2H]C([2H])([2H])NS(=O)(=O)c1ccc(Nc2ncc(C(F)(F)F)c(O[C@H]3CCOC[C@H]3O)n2)cc1 (single isomer, unassigned) [Example 100a]
A. 6.00 to 7.00

* * *

# IC50 per entry
test_system: CDK7/CyclinH/MAT1 (Homo sapiens (Human), UniProt P50613)
protocol_description: CDK7/CyclinH/MAT1 kinase inhibitory activity (Caliper mobility shift)
Assay type: biochemical

| compound | test_system | value_measured |
| --- | --- | --- |
| Cc1cnc(Nc2ccc(S(=O)(=O)NC(C)C)cc2)nc1OC1CCCC1O (single isomer, unassigned) [Example 147a] | CDK7/CyclinH/MAT1 (Homo sapiens (Human), UniProt P50613) | 100 to 1000 nM |

Q. Give IC50 for the following compound: CCS(=O)(=O)N1CCC(Nc2ncc(C#N)c(OC3CCCC3(C)O)n2)CC1 (single isomer, unassigned) [Example 36b]
A. 100 to 1000 nM

Q. Give IC50 for the following compound: [2H]C([2H])([2H])NS(=O)(=O)c1ccc(Nc2ncc(Cl)c(OC3COCC3(C)O)n2)cc1 (single isomer, unassigned) [Example 140a]
A. 100 to 1000 nM

Q. Give IC50 for the following compound: [2H]C([2H])([2H])NS(=O)(=O)c1ccc(Nc2ncc(C(F)(F)F)c(OC3COCCC3O)n2)cc1 (single isomer, unassigned) [Example 117a]
A. 100 to 1000 nM

* * *

# pIC50 per entry
test_system: CDK4/Cyclin D1 (Homo sapiens (Human))
Sequence (P11802 whole entry): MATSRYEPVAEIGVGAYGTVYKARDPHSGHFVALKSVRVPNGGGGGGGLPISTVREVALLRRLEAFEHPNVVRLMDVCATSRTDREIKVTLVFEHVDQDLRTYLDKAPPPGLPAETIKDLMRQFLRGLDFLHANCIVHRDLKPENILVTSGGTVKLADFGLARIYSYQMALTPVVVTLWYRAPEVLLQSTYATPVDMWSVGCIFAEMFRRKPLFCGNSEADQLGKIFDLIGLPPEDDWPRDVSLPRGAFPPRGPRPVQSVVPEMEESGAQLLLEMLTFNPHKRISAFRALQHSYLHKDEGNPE
Sequence (P24385 whole entry partner): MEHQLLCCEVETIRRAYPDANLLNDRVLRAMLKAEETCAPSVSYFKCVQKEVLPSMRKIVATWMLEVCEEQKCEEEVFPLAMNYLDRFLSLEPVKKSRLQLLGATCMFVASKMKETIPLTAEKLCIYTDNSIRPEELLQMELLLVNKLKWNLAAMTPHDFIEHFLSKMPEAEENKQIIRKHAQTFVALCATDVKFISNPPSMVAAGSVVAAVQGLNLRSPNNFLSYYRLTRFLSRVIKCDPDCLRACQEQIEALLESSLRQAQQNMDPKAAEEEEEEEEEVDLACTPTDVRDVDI
protocol_description: CDK4/CyclinD1 kinase inhibitory activity (Caliper mobility shift)
pIC50: −log10 of the molar value.

Past entries and their recorded results:
| compound | pIC50 |
| --- | --- |
| [2H]C([2H])([2H])NS(=O)(=O)c1ccc(Nc2ncc(C(F)(F)F)c(OC3CCCC3O)n2)cc1 (single isomer, unassigned) [Example 109a] | 6.00 to 7.00 |
| CS(=O)(=O)N1CCC(Nc2ncc(Br)c(OC3CCCCCC3O)n2)CC1 (single isomer, unassigned) [Example 145b] | 7.00 to 8.00 |

Now look at this entry.
Q. # lookup: CDK4/Cyclin D1 (Homo sapiens (Human)) pIC50, key = CCc1cnc(Nc2ccc(S(N)(=O)=O)cc2)nc1O[C@@H]1CCC[C@@H]1O (single isomer, unassigned) [Example 133a]
A. 6.00 to 7.00

* * *

test_system: CDK2/CyclinE1 (Homo sapiens (Human))
protocol_description: CDK2/CyclinE1 kinase inhibitory activity (Caliper mobility shift)
measurement_context: read-out: CDK2/Cyclin El IC50
# IC50 per entry

| molecule | IC50 |
| --- | --- |
| CC(C)CS(=O)(=O)N1CCC(Nc2ncc(C#N)c(OC3CCCC3(C)O)n2)CC1 (single isomer, unassigned) [Example 39b] | 10 to 100 nM |
| CNS(=O)(=O)c1ccc(Nc2ncc(C(F)(F)F)c(OC3CCOCCC3O)n2)cc1 (single isomer, unassigned) [Example 102c] | < 10 nM |
| CNS(=O)(=O)c1ccc(Nc2ncc(C#N)c(OC3CCCC3(C)O)n2)cc1 (single isomer, unassigned) [Example 34a] | < 10 nM |
| N#Cc1cnc(Nc2ccc(S(N)(=O)=O)cc2)nc1N1CCCC1 | 10 to 100 nM |
| CC(C)NS(=O)(=O)c1ccc(Nc2ncc(C#N)c(OC3CCCCC3O)n2)cc1 (single isomer, unassigned) [Example 30a] | < 10 nM |
| NS(=O)(=O)c1ccc(Nc2ncc(C(F)(F)F)c(OC3CCCCC3O)n2)cc1 (single isomer, unassigned) [Example 111a] | < 10 nM |

Now look at this entry.
Q. Give IC50 for the following molecule: N#Cc1cnc(Nc2ccc(S(N)(=O)=O)cc2)nc1N1CCCCC1
A. < 10 nM

* * *

# pIC50 per entry
test_system: CDK9/CyclinT1 (Homo sapiens (Human))
Sequence (P50750 whole entry): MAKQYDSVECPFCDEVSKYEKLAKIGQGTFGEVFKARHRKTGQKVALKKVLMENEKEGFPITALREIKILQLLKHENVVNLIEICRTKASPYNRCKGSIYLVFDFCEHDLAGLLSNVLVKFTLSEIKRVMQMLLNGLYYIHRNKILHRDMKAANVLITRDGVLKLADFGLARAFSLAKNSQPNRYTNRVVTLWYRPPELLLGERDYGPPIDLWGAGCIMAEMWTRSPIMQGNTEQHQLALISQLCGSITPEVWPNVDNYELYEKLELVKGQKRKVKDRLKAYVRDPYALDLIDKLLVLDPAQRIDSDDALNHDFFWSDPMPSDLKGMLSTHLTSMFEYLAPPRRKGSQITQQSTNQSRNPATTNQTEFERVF
Sequence (O60563 whole entry partner): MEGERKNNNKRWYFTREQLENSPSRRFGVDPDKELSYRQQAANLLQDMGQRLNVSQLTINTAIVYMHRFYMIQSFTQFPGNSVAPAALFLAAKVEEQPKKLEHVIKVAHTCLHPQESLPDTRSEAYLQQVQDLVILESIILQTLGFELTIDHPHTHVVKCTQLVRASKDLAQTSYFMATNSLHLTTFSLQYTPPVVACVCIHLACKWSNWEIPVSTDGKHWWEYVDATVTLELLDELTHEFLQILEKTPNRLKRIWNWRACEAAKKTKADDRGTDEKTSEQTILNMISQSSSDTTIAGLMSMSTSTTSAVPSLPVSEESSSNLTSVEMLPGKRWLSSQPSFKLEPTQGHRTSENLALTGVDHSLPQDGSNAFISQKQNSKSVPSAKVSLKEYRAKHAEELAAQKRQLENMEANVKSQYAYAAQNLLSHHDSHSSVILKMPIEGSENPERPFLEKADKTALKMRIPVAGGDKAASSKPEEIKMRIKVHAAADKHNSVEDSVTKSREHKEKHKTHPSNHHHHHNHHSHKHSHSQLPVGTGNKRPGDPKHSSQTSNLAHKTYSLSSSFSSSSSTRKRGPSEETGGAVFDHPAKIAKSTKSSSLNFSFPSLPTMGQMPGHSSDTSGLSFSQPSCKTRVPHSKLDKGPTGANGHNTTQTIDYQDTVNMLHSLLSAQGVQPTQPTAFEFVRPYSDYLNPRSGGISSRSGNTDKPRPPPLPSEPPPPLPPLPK
protocol_description: CDK9/CyclinT1 kinase inhibitory activity (Caliper mobility shift)
measurement_context: read-out: CDK9/Cyclin T1 IC50
pIC50: −log10 of the molar value.

Q. # lookup: CDK9/CyclinT1 (Homo sapiens (Human)) pIC50, key = C[C@]1(O)CCC[C@H]1Oc1nc(NC2CCN(S(C)(=O)=O)CC2)ncc1C#N (relative stereo) [Example 5a]
A. 6.00 to 7.00

Q. # lookup: CDK9/CyclinT1 (Homo sapiens (Human)) pIC50, key = N#Cc1cnc(Nc2ccc(S(N)(=O)=O)cc2)nc1N1CCC[C@H](O)C1
A. 6.00 to 7.00

Q. # lookup: CDK9/CyclinT1 (Homo sapiens (Human)) pIC50, key = CC(C)NS(=O)(=O)c1ccc(Nc2ncc(C3CC3)c(O[C@@H]3CCC[C@@H]3O)n2)cc1 (single isomer, unassigned) [Example 134a]
A. 6.00 to 7.00

Q. # lookup: CDK9/CyclinT1 (Homo sapiens (Human)) pIC50, key = C=Cc1cnc(Nc2ccc(S(N)(=O)=O)cc2)nc1OC1CCCC1O (single isomer, unassigned) [Example 155b]
A. 6.00 to 7.00

* * *

# pIC50 per entry
test_system: CDK9/CyclinT1 (Homo sapiens (Human))
protocol_description: CDK9/CyclinT1 kinase inhibitory activity (Caliper mobility shift)
measurement_context: read-out: CDK9/Cyclin T1 IC50
pIC50: −log10 of the molar value.

Past entries and their recorded results:
| compound | pIC50 |
| --- | --- |
| CC(C)NS(=O)(=O)c1ccc(Nc2ncc(C#N)c(OC3CCC(O)C3)n2)cc1 (single isomer, unassigned) [Example 29a] | 6.00 to 7.00 |
| C[C@]1(O)CCC[C@H]1Oc1nc(NC2CCN(S(C)(=O)=O)CC2)ncc1C#N (relative stereo) [Example 3a] | ≤ 6.00 |

Q. # lookup: CDK9/CyclinT1 (Homo sapiens (Human)) pIC50, key = CNS(=O)(=O)N1CCC(Nc2ncc(C#N)c(OCC3(C)CCCC3)n2)CC1
A. 6.00 to 7.00

Q. # lookup: CDK9/CyclinT1 (Homo sapiens (Human)) pIC50, key = Cn1cc(S(=O)(=O)N2CCC(Nc3ncc(C#N)c(OC4CCCC4(C)O)n3)CC2)cn1 (single isomer, unassigned) [Example 48b]
A. ≤ 6.00

Q. # lookup: CDK9/CyclinT1 (Homo sapiens (Human)) pIC50, key = CC1(COc2nc(Nc3ccc(S(N)(=O)=O)cc3)ncc2C#N)CCCC1
A. 7.00 to 8.00

Q. # lookup: CDK9/CyclinT1 (Homo sapiens (Human)) pIC50, key = CNS(=O)(=O)N1CCC(Nc2ncc(C(F)(F)F)c(OC3CCCCCC3O)n2)CC1 (single isomer, unassigned) [Example 123b]
A. 6.00 to 7.00

Q. # lookup: CDK9/CyclinT1 (Homo sapiens (Human)) pIC50, key = CC(C)NS(=O)(=O)c1ccc(Nc2ncc(C#N)c(OC3CCCC3(C)O)n2)cc1 (single isomer, unassigned) [Example 35b]
A. 6.00 to 7.00

Q. # lookup: CDK9/CyclinT1 (Homo sapiens (Human)) pIC50, key = CS(=O)(=O)N1CCC(Nc2ncc(C(F)(F)F)c(OC3CCCCCC3O)n2)CC1 (single isomer, unassigned) [Example 121a]
A. 6.00 to 7.00

Q. # lookup: CDK9/CyclinT1 (Homo sapiens (Human)) pIC50, key = CCc1cnc(Nc2ccc(S(N)(=O)=O)cc2)nc1O[C@@H]1CCC[C@@H]1O (single isomer, unassigned) [Example 133a]
A. 7.00 to 8.00

Q. # lookup: CDK9/CyclinT1 (Homo sapiens (Human)) pIC50, key = NS(=O)(=O)c1ccc(Nc2ncc(C(F)(F)F)c(O[C@@H]3CCC[C@@H]3O)n2)cc1 (single isomer, unassigned) [Example 99b]
A. 6.00 to 7.00

Q. # lookup: CDK9/CyclinT1 (Homo sapiens (Human)) pIC50, key = [2H]C([2H])([2H])NS(=O)(=O)c1ccc(Nc2ncc(CC)c(OC3COCCC3(C)O)n2)cc1 (single isomer, unassigned) [Example 153b]
A. ≤ 6.00
